FYI, the data here is from PubChem BioAssay AID463203.

target-under-test: Glycogen synthase kinase-3 alpha (Homo sapiens)
assay-notes: concentration-response blocking of human GSK3A – biochemical, luminescence, cell-free homogeneous, retest, dose response (AID 463203)
condition-label: GSK-3 alpha enzyme, ADP-Glo luminescence, 60 min
The source made the active and inactive calls.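 How the source made its calls: active means more than half of replicate measurements showing over 20% loss of kinase signal relative to plate controls; inconclusive means some but at most half of replicates over 20% loss; inactive means no replicate over 20% signal loss.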
Outcomes: class 1 for active, class 0 for inactive

| molecule | cat |
| --- | --- |
| CC1CCCCC1NC(=O)C(=O)NCC1CCCO1 (centres undefined) | class 0 |
| COc1cccc(NC(=O)c2cnc[nH]2)c1 | class 0 |
| Cc1ccc2oc(=O)c3cnn(CC(=O)N4CCN(c5ccccc5)CC4)c3c2c1 | class 0 |
| Nn1c(SCc2ccccc2F)nnc1-c1ccncc1 | class 0 |
| Cc1sc2nc(SCC(=O)Nc3ccc(S(=O)(=O)NCCCC(=O)O)cc3)[nH]c(=O)c2c1C | class 1 |
| Nc1ncc([N+](=O)[O-])s1 | class 0 |
| C/C(=C(/CCO)SSCC1CCCO1)N(C=O)Cc1cnc(C)nc1N (centres undefined) | class 0 |
| CSc1nc(NCC(C)C)nc(N2CCOCC2)n1 | class 0 |
| Cc1c(C(=O)N2CCN(c3ccccc3)CC2)oc2c(Cl)cccc12 | class 0 |
| C=CCN1C(=O)/C(=C\c2cccs2)C(C(=O)OC)=C1C | class 0 |
| O=C(O)C1CCCC[C@H]1C(=O)Nc1ncc([N+](=O)[O-])s1 (some centres undefined) | class 0 |
| Cc1nc(NC(=O)c2ccccc2)sc1Cc1ccc2c(c1)OCO2 | class 0 |
| O=C(O)CCNc1ccc(NCCC(=O)O)c2c1C(=O)c1ccccc1C2=O | class 1 |
| CCC(=O)NC(=S)Nc1cccc(C(C)=O)c1 | class 0 |
| CC1=Nn2c(nc3sc4c(c3c2=O)CCCC4)SC1 | class 0 |
| O=c1c(O)c(-c2cc(O)c(O)c(O)c2)oc2cc(O)cc(O)c12 | class 1 |
| O=c1ccc2ccccc2o1 | class 0 |
| CNC(=O)c1ccc(NC(=O)C2CCN(c3ncnc4sc(C)c(C)c34)CC2)cc1 | class 0 |
| CN(CCO)c1ncnc2c1sc1nc(N3CCOCC3)c3c(c12)CCC3 | class 0 |
| O=C(Nc1sc2c(c1C(=O)N1CCOCC1)CCCCC2)c1cccnc1 | class 0 |
| COC(=O)c1c(C(C)=O)cnc2ccc(Br)cc12 | class 0 |
| CC(C)NC(=O)Nc1cccc(Cl)c1 | class 0 |
| COc1ccc(/C=N/NC(=O)c2nnn(-c3nonc3N)c2CN(C)c2ccccc2)cc1 | class 0 |
| COc1cc(Br)c(C2C(C#N)=C(N)Oc3n[nH]c(-c4cccnc4)c32)cc1OC (centres undefined) | class 0 |

====

target-under-test: Glycogen synthase kinase-3 alpha (Homo sapiens) (UniProt P49840)
Sequence (P49840 whole entry, looked up): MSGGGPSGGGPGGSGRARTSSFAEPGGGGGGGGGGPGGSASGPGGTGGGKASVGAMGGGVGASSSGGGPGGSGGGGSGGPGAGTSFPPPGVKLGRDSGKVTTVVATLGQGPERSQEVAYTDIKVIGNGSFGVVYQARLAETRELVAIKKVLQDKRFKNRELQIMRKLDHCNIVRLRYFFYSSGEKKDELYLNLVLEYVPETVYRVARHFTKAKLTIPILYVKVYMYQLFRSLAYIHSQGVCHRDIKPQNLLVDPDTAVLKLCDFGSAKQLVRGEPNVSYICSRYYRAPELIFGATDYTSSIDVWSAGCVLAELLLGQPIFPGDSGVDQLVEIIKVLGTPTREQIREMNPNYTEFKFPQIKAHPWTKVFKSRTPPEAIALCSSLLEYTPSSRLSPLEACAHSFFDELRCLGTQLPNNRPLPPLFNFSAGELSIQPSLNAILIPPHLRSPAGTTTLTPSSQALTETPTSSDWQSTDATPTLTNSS
assay-notes: concentration-response blocking of human GSK3A – biochemical, luminescence, cell-free homogeneous, retest, dose response (AID 463203)
condition-label: GSK-3 alpha enzyme, ADP-Glo luminescence, 60 min
Activity calls are given as the source filed them.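 How the source made its calls: active means more than half of replicate measurements showing over 20% loss of kinase signal relative to plate controls; inconclusive means some but at most half of replicates over 20% loss; inactive means no replicate over 20% signal loss.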
Outcome codes: active, inactive

| compound | cat |
| --- | --- |
| COc1cc(/C=N/NC(=O)c2cccs2)ccc1O | inactive |
| O=C(Nc1nc2c(s1)CCCC2)c1ccc(Br)s1 | inactive |
| Cc1nc(S/C(=C/c2ccc(-c3ccc(C(=O)O)cc3)o2)C(=O)O)n[nH]1 | active |
| CN(C)/N=C/c1cn(-c2ccccc2)nc1-c1cccnc1 | inactive |
| COc1ccc(NC(=O)CN(C)C2CCCCC2)c([N+](=O)[O-])c1 | inactive |
| CCOc1ccc(/C=C/C2=Cc3c(sc(NC(=O)CSc4n[nH]c(N)n4)c3C#N)C(C)(C)C2)cc1 | inactive |
| O=C1NC(=Nc2ccccc2Cl)S/C1=C\c1cccc([N+](=O)[O-])c1 | inactive |
| CCOc1ccc(N2C(=O)C3C(c4ccccc4F)NN(C(=O)c4ccc(C)cc4)C3C2=O)cc1 (stereo not given) | inactive |
| COc1cccc(-c2nc(-c3ccccc3)[nH]c(=O)c2C#N)c1 | inactive |
| NC(=O)c1oc2ccccc2c1NC(=O)c1ccc(F)cc1 | inactive |
